Kindly supply the reported IC50 values for the records listed here.
target: Human recombinant carboxy-terminal his-tagged LDHA (amino acids 2-332) (Homo sapiens, UniProt P00338); experiment: LDHA enzyme inhibition assay (NADH fluorescence); conditions: LDHA IC50 (μM), 1 nM LDHA, NADH and pyruvate, stereochemistry of tested sample given
Remember to quote the unit after the number.

Please look up its IC50: O=C1C[C@@](c2ccsc2)(c2ccc(N3CCOCC3)c(F)c2)NC(=O)C1Sc1ccccc1Cl (mixture of isomers)
0.044 µM

Please look up its IC50: O=C1CC(c2ccsc2)(c2cccc(Oc3ccccn3)n2)NC(=O)C1Sc1ccccc1Cl (stereo not shown) [Example 46]
0.005 µM

Please look up its IC50: O=C1CC(c2ccsc2)(c2cccc(OCC3CCC(CO)CC3)n2)NC(=O)C1Sc1ccccc1Cl (single isomer, unassigned) [Example 233]
0.017 µM

Please look up its IC50: O=C1CC(c2ccsc2)(c2cccc(CCc3ccc(F)cc3)n2)NC(=O)C1Sc1ccccc1Cl (single isomer, unassigned) [Example 293]
0.091 µM

Please look up its IC50: O=C1CC(c2ccsc2)(c2cccc(NCCC3CCCCC3)n2)NC(=O)C1Sc1ccccc1Cl (stereo not shown)
0.162 µM

Please look up its IC50: CN1C(=O)C(Sc2ccccc2Cl)C(=O)CC1(c1ccsc1)c1ccccc1F (stereo not shown)
0.058 µM

Please look up its IC50: C[C@H](Nc1cccc(C2(c3ccsc3)CC(=O)C(Sc3ccccc3Cl)C(=O)N2)n1)c1ccc(F)cc1 (stereo in doubt)
0.434 µM
